Assay: self-splicing fitness, log relative to wild type (ln ratio); higher = more splicing; Tetrahymena group I intron in knt gene, E. coli kanamycin selection, DiMSum; sequences stand for … in CUCUCU…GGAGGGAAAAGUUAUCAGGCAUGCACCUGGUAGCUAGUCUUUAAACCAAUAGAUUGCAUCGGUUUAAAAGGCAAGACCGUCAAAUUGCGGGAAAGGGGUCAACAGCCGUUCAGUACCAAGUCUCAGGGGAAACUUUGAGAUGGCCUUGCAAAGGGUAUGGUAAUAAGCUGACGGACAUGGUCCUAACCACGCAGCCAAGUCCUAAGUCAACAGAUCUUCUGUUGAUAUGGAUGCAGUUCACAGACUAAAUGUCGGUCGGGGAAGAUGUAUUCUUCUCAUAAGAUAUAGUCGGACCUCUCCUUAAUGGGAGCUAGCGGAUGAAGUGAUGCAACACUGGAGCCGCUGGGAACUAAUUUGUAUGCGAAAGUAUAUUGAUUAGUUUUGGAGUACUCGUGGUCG;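 also: selection with 25 µg/mL kanamycin versus none on LB agar overnight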
Settings: 37 °C
parameter: self-splicing fitness (ln)
Keep it simple and answer with nothing but the number.

// recorded self-splicing fitness (ln) for UGAAAGCAAUAUUACGAUGA : -0.415

self-splicing fitness (ln) recorded for this sequence, CUAAAGCAAUAUUACGUGUC , is -2.85

For this sequence ( ACACAGCAAUAUUACGUCCU ), measured self-splicing fitness (ln) is 0.432

Looking up AUUUAGCAAUAUUACGCGAG , I found its self-splicing fitness (ln) recorded as -0.658

In plain terms, AAAAAGCAAUAUUACGGGCG has a documented self-splicing fitness (ln) of -0.721

# self-splicing fitness (ln) of CUUUAGCAAUAUUACGGUUC = -2.83

Entry AGCUAGCAAUAUUACGAAAU , self-splicing fitness (ln) reported as -1.83

// self-splicing fitness (ln) lookup, sequence = CGCUAGCAAUAUUACGUCCA , result: -1.04

Per the record, UGGAAGCAAUAUUACGUACG has self-splicing fitness (ln) of 0.202

Reported self-splicing fitness (ln) for CACUAGCAAUAUUACGUUUC was -1.98

Summary for this sequence, AUUCAGCAAUAUUACGAACG : self-splicing fitness (ln) is 0.232

Form: sequence = GCCAAGCAAUAUUACGUACU ; self-splicing fitness (ln) = -0.739

Value of measured self-splicing fitness (ln) for the entry AUCCAGCAAUAUUACGGCUA : -0.19

Lab note: measured self-splicing fitness (ln) of UCCUAGCAAUAUUACGGUGG was -2.32

Briefly, self-splicing fitness (ln) measured for AUCUAGCAAUAUUACGAGAC : -3.22

The recorded self-splicing fitness (ln) for entry GCCUAGCAAUAUUACGAUGC equals 0.0478

Lab note: CUCUAGCAAUAUUACGCGCG gave self-splicing fitness (ln) of -2.86

For reference, reported self-splicing fitness (ln) for CUAGAGCAAUAUUACGUCUU stands at -2.27

Field self-splicing fitness (ln) (entry UUGGAGCAAUAUUACGUGUG ) reads -2.38

get_value(item= GGUGAGCAAUAUUACGAUAG , readout=self-splicing fitness (ln)) returns -2.81

Record CUGCAGCAAUAUUACGAUCA . Reported self-splicing fitness (ln): -2.5

----------
Test: self-splicing fitness, log relative to wild type (ln ratio); higher = more splicing; Tetrahymena group I intron in knt gene, E. coli kanamycin selection, DiMSum; sequences stand for … in CUCUCU…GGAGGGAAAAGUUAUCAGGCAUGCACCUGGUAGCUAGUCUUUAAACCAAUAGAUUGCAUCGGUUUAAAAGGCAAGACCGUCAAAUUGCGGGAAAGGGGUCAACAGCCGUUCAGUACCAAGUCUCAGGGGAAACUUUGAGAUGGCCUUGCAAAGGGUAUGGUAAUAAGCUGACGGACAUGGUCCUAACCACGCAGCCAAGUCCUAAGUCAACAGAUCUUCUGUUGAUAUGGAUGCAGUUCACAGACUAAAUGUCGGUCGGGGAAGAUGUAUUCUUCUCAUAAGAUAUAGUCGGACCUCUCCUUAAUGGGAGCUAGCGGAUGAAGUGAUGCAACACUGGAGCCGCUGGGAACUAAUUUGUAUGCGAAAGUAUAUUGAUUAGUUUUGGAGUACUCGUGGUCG
Details: 30 °C
parameter: self-splicing fitness (ln)
Answer with the value's number alone.

UUUCAGCAAUAUUACGCCAG; -1.4
GCGGAGCAAUAUUACGUAAC; -1.54
ACCUAGCAAUAUUACGACUG; -2.84
GUUUAGCAAUAUUACGACGU; -0.531
UAUAAGCAAUAUUACGCAGG; -2.31

response.value for ACAGAGCAAUAUUACGUAAG (field: self-splicing fitness (ln)) = -2.36

Form: sequence = UUCGAGCAAUAUUACGGUUG ; self-splicing fitness (ln) = -3.78

self-splicing fitness (ln) recorded for this sequence, UGCCAGCAAUAUUACGGCCC , is -0.651

UACAAGCAAUAUUACGAGAU has a reported self-splicing fitness (ln) of -3.65

Lab note: measured self-splicing fitness (ln) of UUAAAGCAAUAUUACGAAGA was -1.19

Kindly note the recorded self-splicing fitness (ln) for GUGAAGCAAUAUUACGCUUC , which is -4.23

self-splicing fitness (ln) in this record for GGACAGCAAUAUUACGCGGA : -0.693

Record UACGAGCAAUAUUACGUAGG , field self-splicing fitness (ln): -3.41

Entry AGCAAGCAAUAUUACGAGAU — recorded self-splicing fitness (ln) = -3.64

self-splicing fitness (ln) recorded for this sequence, UGUUAGCAAUAUUACGUGGA , is -1.1

The measured self-splicing fitness (ln) associated with AUGAAGCAAUAUUACGGGGU reads -2.79

----------
Assay: self-splicing fitness, log relative to wild type (ln ratio); higher = more splicing; Tetrahymena group I intron in knt gene, E. coli kanamycin selection, DiMSum; sequences stand for … in CUCUCU…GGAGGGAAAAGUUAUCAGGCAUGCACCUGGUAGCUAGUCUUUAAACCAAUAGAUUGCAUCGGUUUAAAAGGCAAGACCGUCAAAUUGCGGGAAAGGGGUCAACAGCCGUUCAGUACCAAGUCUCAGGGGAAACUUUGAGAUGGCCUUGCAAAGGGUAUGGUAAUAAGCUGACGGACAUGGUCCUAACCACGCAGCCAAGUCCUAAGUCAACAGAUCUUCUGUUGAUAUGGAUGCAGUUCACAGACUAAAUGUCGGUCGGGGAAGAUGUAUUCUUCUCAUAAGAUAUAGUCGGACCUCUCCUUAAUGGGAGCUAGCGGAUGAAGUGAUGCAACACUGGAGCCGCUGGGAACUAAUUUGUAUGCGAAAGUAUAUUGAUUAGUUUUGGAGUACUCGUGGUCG
Conditions: 37 °C
Mark MET for reported self-splicing fitness (ln) of -2 or greater; mark NOT MET for anything smaller.

Reference set (3 entries):
AAAAAGCAAUAUUACGACGG; MET
UACAAGCAAUAUUACGAGAU; NOT MET
GCCAAGCAAUAUUACGGCGC; MET

Decide: self-splicing fitness (ln) of AACAAGCAAUAUUACGACUA >= -2? MET

Entry UGCGAGCAAUAUUACGGCUA : is its self-splicing fitness (ln) no less than -2? MET

Dear colleague, could you confirm whether GGAGAGCAAUAUUACGGUCU has self-splicing fitness (ln) at or above -2? NOT MET

Textbook exercise: given the entry GGCCAGCAAUAUUACGUGGA , state whether its self-splicing fitness (ln) is greater than or equal to -2. NOT MET

Say whether UACAAGCAAUAUUACGGCUA shows self-splicing fitness (ln) of -2 or more. MET

For this sequence, is measured self-splicing fitness (ln) -2 or higher? CCCGAGCAAUAUUACGAAGU NOT MET

Is reported self-splicing fitness (ln) greater than or equal to -2 here: GUCGAGCAAUAUUACGAGUG MET

Confirm if self-splicing fitness (ln) reported for the sequence GCGAAGCAAUAUUACGUAAG is -2 or above. MET

----------
Assay: self-splicing fitness, log relative to wild type (ln ratio); higher = more splicing; Tetrahymena group I intron in knt gene, E. coli kanamycin selection, DiMSum; sequences stand for … in CUCUCU…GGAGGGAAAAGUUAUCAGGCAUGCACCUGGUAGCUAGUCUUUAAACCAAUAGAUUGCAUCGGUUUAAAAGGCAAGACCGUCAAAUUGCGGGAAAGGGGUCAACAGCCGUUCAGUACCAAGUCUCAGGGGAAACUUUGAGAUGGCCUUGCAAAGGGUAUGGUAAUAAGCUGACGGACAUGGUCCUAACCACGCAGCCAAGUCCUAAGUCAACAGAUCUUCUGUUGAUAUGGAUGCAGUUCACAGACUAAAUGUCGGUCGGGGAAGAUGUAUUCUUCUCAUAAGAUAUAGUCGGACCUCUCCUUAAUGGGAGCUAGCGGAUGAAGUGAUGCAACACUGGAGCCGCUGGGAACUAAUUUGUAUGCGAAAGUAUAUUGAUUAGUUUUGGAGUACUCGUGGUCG
Settings: 30 °C
parameter: self-splicing fitness (ln)

Below, each entry is followed by its recorded self-splicing fitness (ln) result.
GAAGAGCAAUAUUACGAUUA; -2.33
ACAAAGCAAUAUUACGUAGA; -3.68
UAAUAGCAAUAUUACGCUCG; 0.447
GGUGAGCAAUAUUACGGGCA; -1.68
CACCAGCAAUAUUACGCGGU; -3.67
UACGAGCAAUAUUACGGUAC; -3.89
GUAGAGCAAUAUUACGACAU; 0.278
AACGAGCAAUAUUACGGUGC; -3.15
UUGCAGCAAUAUUACGAUUU; -2.64
UGCCAGCAAUAUUACGAUUC; -2.68

Recorded self-splicing fitness (ln) (sequence GGAAAGCAAUAUUACGCACC ): -1.43

Recorded self-splicing fitness (ln) (sequence CGCGAGCAAUAUUACGCAAG ): -2.92

For record CGGAAGCAAUAUUACGGUGC the listed self-splicing fitness (ln) is -3.17

# self-splicing fitness (ln) (sequence: ACACAGCAAUAUUACGCACC ) is -0.476

# sequence ACCGAGCAAUAUUACGAUUC ; its self-splicing fitness (ln) = -3.37
